# Run description: Antiapoptotic activity against serum deprivation-induced human SK-N-BE(2) cells assessed as viable cells at 10 uM after 36 hrs incubation by DePsipher agent relative to control
# Type: functional
Attribute measured: Activity

>>> obs_value("C#CCN")
"79%"
>>> obs_value("C#CCN1C2C3C4CC5C6C4C2C6(C)C1(O)C53 (racemic)")
"67%"
>>> obs_value("C#CCN1C2C3C4CC5C6C4C2C6C1(O)C53 (racemic)")
"93%"
>>> obs_value("C#CCN(Cc1ccccc1)C12CC3CC(CC(C3)C1)C2")
"70%"
>>> obs_value("C#CCNC12OC3C4C5CC(C6C5C3(C)C61)C42 (racemic)")
"97%"
>>> obs_value("C#CCN(CC#C)C12CC3CC(CC(C3)C1)C2")
"68%"
>>> obs_value("C#CCN(C)[C@H](C)Cc1ccccc1")
"77%"
>>> obs_value("C#CCNC12OC3C4C5CC(C6C5C3C61)C42 (racemic)")
"88%"
>>> obs_value("OC1(C#Cc2ccccc2)C2C3CC4C5C3CC2C5C41 (racemic)")
"98%"
>>> obs_value("c1ccc(CNC23OC4C5C6CC(C7C6C4C72)C53)cc1 (configuration not stated)")
"67%"
>>> obs_value("C#CC12OC3(O)C4C5CC(C6C5C3(C)C61)C42 (racemic)")
"100%"

Hello, the source for this data is ChEMBL document CHEMBL3259550, in case you need it.
